Please provide measured pKi for the entries that follow.
- study-system: L. donovani TryR (Leishmania donovani, UniProt P39050)
- Construct: endogenous in cells; host or cells: L. donovani-iRFP (LV9) axenic amastigotes, crude cell extract
- Sequence (P39050 whole entry): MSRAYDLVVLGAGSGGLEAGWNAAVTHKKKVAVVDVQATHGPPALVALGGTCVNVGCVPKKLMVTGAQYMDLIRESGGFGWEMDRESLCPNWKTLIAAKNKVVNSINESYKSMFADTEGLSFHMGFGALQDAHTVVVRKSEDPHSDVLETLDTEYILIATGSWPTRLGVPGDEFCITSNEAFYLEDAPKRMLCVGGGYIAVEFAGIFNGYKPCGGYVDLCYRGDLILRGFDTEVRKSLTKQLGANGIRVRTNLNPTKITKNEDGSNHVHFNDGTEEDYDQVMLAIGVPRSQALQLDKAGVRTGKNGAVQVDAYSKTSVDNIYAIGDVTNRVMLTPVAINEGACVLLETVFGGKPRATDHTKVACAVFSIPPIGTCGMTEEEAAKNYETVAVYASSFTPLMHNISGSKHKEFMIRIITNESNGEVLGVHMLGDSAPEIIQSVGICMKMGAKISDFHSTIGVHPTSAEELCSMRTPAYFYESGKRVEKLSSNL
- assay-summary: biochemical
Answers are plain numbers, as −log10 of the molar value.

- molecule: "O=C1CN(/N=C/c2ccc([N+](=O)[O-])o2)C(=O)N1 [Nitrofurantoin]"
  pKi: 4.51
- molecule: "CC(=O)OC(OC(C)=O)c1ccc([N+](=O)[O-])o1 [5-nitro-2-furaldehide diacetate, 5-Nitro-2-furaldehyde diacetate]"
  pKi: 4.11

Please state, for each entry, its recorded pKi.
1. O=C1OCCN1/N=C/c1ccc([N+](=O)[O-])o1 [Furazolidone]
2. CC1CS(=O)(=O)CCN1/N=C/c1ccc([N+](=O)[O-])o1 (stereo not shown) [Nifurtimox]

[4.86, 4.47]
